test system: HOP-62 NSCLC; assay: NCI tumour cell line growth inhibition, 48 h; in the data active means GI50 below about 0.43 µM; inactive means the rest
Outcome codes: 1.0 (active), 0.0 (inactive)

- compound: "COc1ccc2c(c1)cn1c3ccc(OC)cc3[nH]c(=O)c21"
  cat: 1.0
- compound: "Nc1c2c(c(O)c3c1=C(CO)C=N3)=NCCS2=O (stereo unspecified)"
  cat: 0.0
- compound: "Cc1cc(=O)[nH]c2c1C(=O)C(=O)C=C2"
  cat: 0.0
- compound: "COc1cc(-c2cc(C(=O)N3CCN(C(=O)c4ccccc4NCc4cccs4)CC3)nc3cc(-c4ccccc4)nn23)cc(OC)c1OC"
  cat: 0.0
- compound: "NC(CSC(c1ccccc1)(c1ccccc1)c1ccc(Br)cc1)C(=O)O (stereo unspecified)"
  cat: 0.0
- compound: "COc1ccc2nc3c(cc2c1)C(=O)CC(C(F)(F)F)C3 (stereo unspecified)"
  cat: 0.0

* * *

tested on: NCI-H460 lung; test: NCI tumour cell line growth inhibition, 48 h
We begin with a simple list: items and their reported TGI.

- molecule: "c1ccc2c(CCNC3=NCCO3)cccc2c1"
  tgt: "NCI-H460 lung"
  TGI: "> 10 µM"
- molecule: "CN(C)CCNc1nc2c(c(=O)n(C)c(=O)n2C)n1C"
  tgt: "NCI-H460 lung"
  TGI: "> 100 µM"
- molecule: "Cc1csc(CP(=O)(OC(C)C)OC(C)C)n1"
  tgt: "NCI-H460 lung"
  TGI: "> 100 µM"
- molecule: "O=C(O)COc1cccc2ccccc(=O)c12"
  tgt: "NCI-H460 lung"
  TGI: "> 100 µM"
- molecule: "CCN(CC)C(=O)CCNC(C)Cc1c[nH]c2ccccc12 (stereo unspecified)"
  tgt: "NCI-H460 lung"
  TGI: "> 100 µM"
- molecule: "CC(=O)Nc1ccc(C(=O)NN2C(=O)C(Cl)C2/C=C/c2ccccc2)cc1 (stereo unspecified)"
  tgt: "NCI-H460 lung"
  TGI: "> 100 µM"
- molecule: "O=C1OC(/C=C/c2ccccc2)C(=O)C1=O (stereo unspecified)"
  tgt: "NCI-H460 lung"
  TGI: "> 100 µM"
- molecule: "c1ccc2c[n+](Cc3ccnc4ccccc34)ccc2c1"
  tgt: "NCI-H460 lung"
  TGI: "> 100 µM"
- molecule: "O=c1cc(/C=C/c2ccccc2)c2ccc(O/C(=C\\c3ccccc3)c3nc4ccccc4c(=O)o3)cc2o1"
  tgt: "NCI-H460 lung"
  TGI: "> 100 µM"
- molecule: "O=C1CCCC1C(O)(C(F)(F)Cl)C(F)(F)Cl (stereo unspecified)"
  tgt: "NCI-H460 lung"
  TGI: "> 10 µM"
- molecule: "Cc1ccc(Sc2cc([N+](=O)[O-])cc(Sc3ccc(C)cc3)c2Sc2ccc(C)cc2)cc1"
  tgt: "NCI-H460 lung"
  TGI: "> 100 µM"

* * *

test system: CCRF-CEM leukemia; test: NCI tumour cell line growth inhibition, 48 h
We begin with a simple list: items and their reported TGI.

- compound: "O=C1C2Cc3ccccc3CN2C(=O)N1CCN1CCOCC1 (centres undefined)"
  TGI: "> 100 µM"
- compound: "O=C(CCCN1CCC(Nc2ccc(F)cc2)(c2nnnn2C2CCCCC2)CC1)c1ccc(F)cc1"
  TGI: "> 100 µM"
- compound: "CC(=O)Oc1ccc(C2SCc3nc4ccccc4n32)cc1 (centres undefined)"
  TGI: "> 100 µM"
- compound: "c1ccc2c[n+](Cc3ccnc4ccccc34)ccc2c1"
  TGI: "> 100 µM"
- compound: "Cn1c(=O)ccc2cc(C(=O)c3ccccc3)ccc21"
  TGI: "> 100 µM"
- compound: "COc1ccc(OC/C(N=Cc2cccnc2)=N/NC(=O)c2ccncc2)cc1"
  TGI: "> 100 µM"
- compound: "COc1ccc(/C=N/C2=C(C#N)C(c3ccccc3)c3ccc4ccccc4c3O2)cc1 (centres undefined)"
  TGI: "> 100 µM"
- compound: "CC1(C)CC(=O)C(/C=N/c2nc(-c3cccc([N+](=O)[O-])c3)cs2)=C(O)C1"
  TGI: "5.69 µM"
- compound: "CC12CCC(C)(c3cc(O)c(O)cc31)c1cc(O)c(O)cc12"
  TGI: "11.1 µM"
- compound: "CCCCCCCCC[C@@H]1C[C@H](O)[C@H](Cc2ccccc2)N1C(=O)OC(C)(C)C"
  TGI: "55.9 µM"
- compound: "Cc1cccc(C)c1NC(=O)/C(CC(=O)CC(c1ccccc1)c1c(O)c2ccccc2oc1=O)=N/O (centres undefined)"
  TGI: "> 100 µM"
- compound: "COC(=O)CC(c1ccccc1)C(C#N)(OP1(=O)OC(c2ccccc2)C(C)N1C)c1ccccc1 (centres undefined)"
  TGI: "> 100 µM"
- compound: "COc1ccc(-c2nc3ccccc3c(=O)[nH]2)cc1OC"
  TGI: "> 100 µM"
- compound: "CCn1cc(C(=O)O)c(=O)c2cc(F)c(N3CCNCC3)nc21"
  TGI: "> 100 µM"

* * *

test system: M14 melanoma; experiment: NCI tumour cell line growth inhibition, 48 h

- molecule smiles: "COc1ccc2c(c1)cn1c3ccc(OC)cc3[nH]c(=O)c21"
  tgt: "M14 melanoma"
  GI50: "27 nM"
- molecule smiles: "Cc1cc(=O)[nH]c2c1C(=O)C(=O)C=C2"
  tgt: "M14 melanoma"
  GI50: "23800 nM"
- molecule smiles: "COc1ccc(-c2nn(C(=O)c3cc(OC)c(OC)c(OC)c3)c3cc(N)ccc23)cc1"
  tgt: "M14 melanoma"
  GI50: "< 11.8 nM"

* * *

We begin with a simple list: items and their reported TGI.
system: NCI-H23 lung; assay: NCI tumour cell line growth inhibition, 48 h
readout label: TGI

- compound: "CCOc1ccc(-n2cc(-c3ccc(N(C)C)cc3)[n+]3c2CCCCC3)cc1"
  tgt: "NCI-H23 lung"
  readout label: "TGI"
  value measured: "> 43 µM"
- compound: "COc1ccc(Nc2cnc3cc(N)ccc3n2)cc1OC"
  tgt: "NCI-H23 lung"
  readout label: "TGI"
  value measured: "> 100 µM"
- compound: "[B]C(=O)NC(CC(C)C)C(=O)NC1c2ccsc2C(=O)C1O (stereo unspecified) (tested in a mixture with another compound)"
  tgt: "NCI-H23 lung"
  readout label: "TGI"
  value measured: "> 100 µM"
- compound: "C[C@]12CC[C@H](O)CC1CCC[C@@H]2O (stereo partly specified)"
  tgt: "NCI-H23 lung"
  readout label: "TGI"
  value measured: "> 100 µM"
- compound: "COc1cc(-c2nc3cc(Cl)c(Cl)cc3[nH]2)ccc1OCC(=O)N=Nc1c(O)[nH]c2ccccc12"
  tgt: "NCI-H23 lung"
  readout label: "TGI"
  value measured: "0.938 µM"
- compound: "Cc1nc(N(C)C)nc(-c2cccc(-c3ccn(CCN(C)C)n3)c2)c1C"
  tgt: "NCI-H23 lung"
  readout label: "TGI"
  value measured: "> 20 µM"

* * *

test system: UACC-257 melanoma; experiment: NCI tumour cell line growth inhibition, 48 h
We begin with a simple list: items and their reported TGI.

- molecule: "OCC1C2C=CC(O2)[C@H]1CO (stereo partly drawn)"
  TGI: "> 100 µM"
- molecule: "CCN(CC)CCCNc1c2cc(OC)ccc2nc2cccc([N+](=O)[O-])c12"
  TGI: "0.416 µM"
- molecule: "O=C(O)COc1cccc2ccccc(=O)c12"
  TGI: "> 100 µM"
- molecule: "Clc1ccc2c(NCCCNCc3ccc4c(c3)OCO4)ccnc2c1"
  TGI: "3.44 µM"
- molecule: "O=[N+]([O-])C(=C(\\Cl)NCCO)/C(Cl)=C(/Cl)Br"
  TGI: "4.4 µM"
- molecule: "CCN(CC)[C@@H]1c2cc3c(cc2C(c2cc(OC)c(O)c(OC)c2)C2C(=O)CO[C@@H]21)OCO3 (stereo partly drawn)"
  TGI: "> 100 µM"
- molecule: "CN(CC(=O)O)Cc1c[nH]c2ccccc12"
  TGI: "> 100 µM"
- molecule: "C=CCOC1=C(OC(C)=O)C(C2COC(C)(C)O2)OC1=O (stereo not drawn)"
  TGI: "39.7 µM"
- molecule: "CCCCCCCCCCCC(=O)[O][Sn]([CH2]CCC)([CH2]CCC)[CH2]CCC"
  TGI: "0.181 µM"
- molecule: "COc1ccccc1NC(=O)C(=O)C(C#N)CC(C)(C)C=O (stereo not drawn)"
  TGI: "> 100 µM"
- molecule: "Oc1ccccc1/C=N/N1C(=S)N(c2ccccc2)C(=Nc2ccccc2)C1=Nc1ccccc1"
  TGI: "> 68 µM"
- molecule: "CSc1nc(NC2OC(CO)C(O)C(O)C2O)c(N)c(=O)[nH]1 (stereo not drawn)"
  TGI: "> 100 µM"
- molecule: "C=C1[C@@H]2CCC(C)(C)[C@H]1CCC(=O)[C@@H]2C(=O)OC"
  TGI: "> 100 µM"
- molecule: "COC1=C2C[C@](OC)(C#CC=CC#CC2O)CC1(C)C (stereo partly drawn)"
  TGI: "> 100 µM"
- molecule: "Cc1ccc(S(=O)(=O)N/N=C2/C3CC4CCC2C4C3)cc1 (stereo not drawn)"
  TGI: "> 100 µM"
- molecule: "CCc1cc(Cc2cc(CC)cc(C(C)(C)C)c2O)c(O)c(C(C)(C)C)c1"
  TGI: "11.6 µM"
- molecule: "O=c1[nH]nc(-c2ccccc2)c2[nH]c3c(c12)CCCc1ccccc1-3"
  TGI: "44.5 µM"
- molecule: "CCOC(=O)C1=CN(Cc2ccccc2)C2ON=C(c3ccc(Cl)cc3)C2C1 (stereo not drawn)"
  TGI: "> 66.8 µM"
